Origin of values: ChEMBL document CHEMBL3988442

Target: Tyrosyl-tRNA synthetase, putative (Trypanosoma cruzi (strain CL Brener))
Sequence (whole entry): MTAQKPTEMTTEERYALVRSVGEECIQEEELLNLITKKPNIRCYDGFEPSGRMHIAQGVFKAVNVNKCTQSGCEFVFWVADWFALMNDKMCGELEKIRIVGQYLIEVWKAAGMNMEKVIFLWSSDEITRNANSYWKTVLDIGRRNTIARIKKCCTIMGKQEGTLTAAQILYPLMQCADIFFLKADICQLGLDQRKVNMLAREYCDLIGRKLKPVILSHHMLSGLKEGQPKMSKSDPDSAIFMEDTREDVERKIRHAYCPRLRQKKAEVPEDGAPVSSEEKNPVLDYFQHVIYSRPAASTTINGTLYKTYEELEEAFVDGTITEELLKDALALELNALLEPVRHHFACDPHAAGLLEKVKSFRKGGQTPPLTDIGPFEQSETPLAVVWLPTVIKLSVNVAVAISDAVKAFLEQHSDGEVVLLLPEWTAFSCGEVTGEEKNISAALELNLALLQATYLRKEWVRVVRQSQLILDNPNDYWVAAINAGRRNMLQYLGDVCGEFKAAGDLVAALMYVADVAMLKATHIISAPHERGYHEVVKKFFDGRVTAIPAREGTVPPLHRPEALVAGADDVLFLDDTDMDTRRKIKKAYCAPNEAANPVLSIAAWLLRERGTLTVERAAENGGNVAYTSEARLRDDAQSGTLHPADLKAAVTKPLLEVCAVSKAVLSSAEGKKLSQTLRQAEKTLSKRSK
Assay: Trypanosoma cruzi tyrosyl tRNA synthetase (TcYRS) SOP
Format: functional
Parameters: scale not given: direction of the effect not stated beside the values
Conditions: 30 µM
parameter: Percent Effect (%)

> print(dat)
                                    compound  result
 1  CN(Cc1ncc[nH]1)CC(c1cccs1)N1CCOCC1 (stereo not given)    23.2
 2  Cc1nn(C)cc1C(=O)N1C[C@H]2CC[C@@H]1CN(S(=O)(=O)N(C)C)C2    1.24
 3      O=C(COc1cccc(Br)c1)N1CCN(c2nccs2)CC1    16.1
 4  Cc1ccn(-c2ccc(C(=O)N3CCCC(n4ccnc4)C3)cc2)n1 (stereo not given)    -3.8
 5  CN(C)Cc1nn(C)c2c1CCN(S(=O)(=O)c1cccs1)C2    8.97
 6     Cc1nc(N2CCOCC2)nc2c1CCN(Cc1cccnc1)CC2    -2.5
 7  CC(=O)N(Cc1ncc(C(C)C)o1)C1CCN(Cc2nccn2C)C1 (stereo not given)    28.1
 8      Cc1cnn(CCNCc2nc(COc3ccc(F)cc3)no2)c1   -29.3
 9  Cc1cc(CN2CCN(c3ccc4nncn4n3)C(C)C2)no1 (stereo not given)    21.9
10  CC(C)(CNC(=O)OC(C)(C)C)NC(=O)C1CC(=O)N(C2CC2)C1 (stereo not given)     3.7
11  CCN(CC)Cc1ccc(C(=O)N2CCN(CC(C)O)CC2)cc1 (stereo not given)    1.24
12    Cc1cc(-c2cnc(NC3CC3)nc2-c2ccc(C)o2)on1    14.1
13         COCC(=O)N1CCCn2c(CN3CCCCC3)nnc2C1    11.1
14       Cc1ccc(CN(CCCn2ccnc2)Cc2c[nH]cn2)s1    14.3
15  CCc1nc(C(=O)N2CCN(C)CC2C)nn1-c1ccccc1Cl (stereo not given)    11.1
16         O=C(CCn1ccccc1=O)Nc1ccc(F)c(Cl)c1    6.17
17  CCN1CC(C(=O)N2CCC(Oc3ccccc3Cl)CC2)CC1=O (stereo not given)   -30.9
18  Cc1cc(C)n(C2CCCN(C(=O)c3ccc(NC4CC4)nc3)C2)n1 (stereo not given)    9.41
19  COCC(NC(=O)c1cnn(C)c1)c1cccc(C(F)(F)F)c1 (stereo not given)       0
20  COCC1CCCN(C(=O)c2cc(Cn3ccc4ccccc43)[nH]n2)C1 (stereo not given)    18.5
21  Cc1cc(CN(Cc2cccs2)CC2CCCO2)no1 (stereo not given)       0
22     Cc1nnc2n1CCN(Cc1csc(CC(=O)N(C)C)n1)C2    13.4
23    O=C(NCCN1CCNCC1)c1c(O)c2ccccc2[nH]c1=O    5.13
24       CCc1nnc(Nc2cccc(C3CCN(CCO)CC3)n2)s1    11.7
25  O=C(c1ccc(Cl)cc1)N1CCCn2nnc(Cn3cccn3)c2C1    16.1
26    Cc1cc(CN2CCN(C(=O)NCc3nc(C)cs3)CC2)on1    13.6
27                   O=C(Cn1cc(I)cn1)N1CCCC1    5.13
28                COCCCN1CCC(NC(=O)C(C)C)CC1   -1.24
29  COc1ccc(C(=O)N2Cc3c(Cn4ccnc4)nn(C)c3C2)cc1    11.5
30  CN1CCOC(CN(C(=O)Cc2ccccc2F)c2nccs2)C1 (stereo not given)     6.1
31  Cc1nnc2n1CCN(C(=O)c1cn(-c3ccccc3Cl)nn1)C2    16.1
32  CC(C)(C)N1CC(C(=O)N2CCN(CCn3cccc3)CC2)CC1=O (stereo not given)    8.64
33  CC(C)c1nc(CN2CCN(C(C)c3nc(C4CC4)no3)CC2)no1 (stereo not given)    2.53
34  O=C1CC(c2ccc(F)c(F)c2)c2snc(C(=O)O)c2N1 (stereo not given)   -5.13
35          COCc1cc(NCCc2ccc(F)cc2)n2nccc2n1       5
36  CNC(=O)c1ccc(C(=O)N2CCCC(n3cc(C)cn3)C2)cn1 (stereo not given)    26.8
37  OC(CN(Cc1ccccc1)Cc1ccncc1)c1cccs1 (stereo not given)    6.17
38  CN1CC(=O)N(c2cnn(C)c2)CC12CCN(Cc1ccccc1)C2 (stereo not given)    8.64
39    COc1ccnc(N2CCN(C(=O)Cc3ccc(C)s3)CC2)n1    25.9
40  Cn1cccc1C(=O)N[C@@H]1CN(CC2CC2)[C@@H]2COC[C@@H]21     7.5
